test.summary: Primary qHTS for inhibitors of MERS-S pseudo-typed particle cell entry (AID 1479149); also: nearly all actives have a fitted effect of over 60% in size; also: potency is read from the fitted curve at half-maximal effect
condition.parameters: MERS-S pseudotyped particle entry, luciferase; series mostly up to 57.1 µM
Records with an inconclusive call do not appear. Calls of active or inactive are those of the source. Calls follow the shape of the full dose curve.
observation.type: Potency

CC(C)(C)C(=O)C(Oc1ccc(Cl)cc1)n1ccnc1 (stereo unspecified)
inactive
Oc1c(Cl)cc(Cl)c(Cl)c1Cc1c(O)c(Cl)cc(Cl)c1Cl
3.55 µM (active)
C[C@@H]1C[C@H]2[C@@H]3CCC4=CC(=O)C=C[C@]4(C)[C@@]3(Cl)[C@@H](O)C[C@]2(C)[C@@]1(OC(=O)c1ccco1)C(=O)CCl
inactive
CCCCCOc1ccc(C2SC(=O)NC2=O)cc1OCC (stereo unspecified)
inactive
CC[N+](CC)(CC(=O)Nc1c(C)cccc1C)Cc1ccccc1
inactive
Cc1ncc(CSSCc2cnc(C)c(O)c2CO)c(CO)c1O
inactive

Q: Record request: Potency value, item CN(C)CCN(Cc1ccccc1)c1ccccn1
Result: inactive

Q: Record request: Potency value, item COc1ccc2c(c1)c(CC(=O)OCC(=O)O)c(C)n2C(=O)c1ccc(Cl)cc1
Result: inactive

###

tested.on: Glutathione peroxidase 1 (Homo sapiens) (UniProt P07203)
Sequence (P07203 whole entry, looked up): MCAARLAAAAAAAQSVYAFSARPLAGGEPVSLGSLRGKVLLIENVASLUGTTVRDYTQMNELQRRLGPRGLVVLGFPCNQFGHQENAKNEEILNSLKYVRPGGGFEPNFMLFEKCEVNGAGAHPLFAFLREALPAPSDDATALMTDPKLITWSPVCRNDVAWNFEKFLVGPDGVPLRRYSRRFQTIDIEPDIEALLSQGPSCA
test.summary: Primary qHTS Assay for Inhibitors of Recombinant Selenoprotein Glutathione Peroxidase 1 (GPX1) (AID 1845191); also: nearly all actives have a fitted effect of over 65% in size
condition.parameters: recombinant GPX1, GR-coupled NADPH fluorescence, 15 min; at 48.8 µM (top of the series); series mostly up to 48.8 µM
Inconclusive results are not listed. Calls of active or inactive are those of the source. The call rests on the fitted dose curve; in most records, active means well fitted inhibition curve with a large enough effect; inconclusive means small, poorly fitted or top-dose-only effect; inactive means flat fitted curve, though single readings scatter.
observation.type: outcome

Below: 4 molecules and their reported outcome.
CNC(C)Cc1ccccc1OC (stereo not given)
inactive
C[C@@H]1O[C@@H](O[C@@H]2C=C3CC[C@@H]4[C@H](CC[C@]5(C)[C@@H](c6ccc(=O)oc6)CC[C@]45O)[C@@]3(C)CC2)[C@H](O)[C@H](O)[C@H]1O
inactive
CNC(=O)Oc1cccc2ccccc12
inactive
C[N+]1(C)[C@@H]2CC[C@H]1CC(OC(=O)C(CO)c1ccccc1)C2 (stereo not given in full)
inactive

Please examine the following record next.
Q: Record request: outcome value, item O=C(CCCN1CCC(n2c(=O)[nH]c3ccccc32)CC1)c1ccc(F)cc1
Result: inactive

###

test.summary: Drug repurposing screens with cells derived from glioblastoma tumor samples (AID 1345199); also: % is scaled to controls: 0 for no effect and ±100 for the full control effect; nearly all actives have a fitted effect of over 40% in size
condition.parameters: GBM patient neurospheres viability, ATP luminescence, 48 h; at 91.6 µM (top of the series); tumour line D
Results filed as inconclusive are left out.
observation.type: activity, negative = cell killing (%)
Give the quantity in %, number only.

Below: 3 compounds and their reported activity, negative = cell killing.
CCCN(CCC)CCc1c[nH]c2ccccc12
-14
CN(C)CCc1c[nH]c2ccc(O)cc12
-23.3
CN(C)CCc1c[nH]c2cccc(O)c12
-23.4

Q: Record request: activity, negative = cell killing value, item CC1N=C(N)OC1c1ccccc1 (stereo not given)
Result: -16.1

Q: Record request: activity, negative = cell killing value, item Cc1nc2ccccc2c(=O)n1-c1ccccc1Cl
Result: -27.3

###

test.summary: qHTS for Inhibitors of the Functional Ribonucleoprotein Complex (vRNP) of Lassa (LASV) Arenavirus: LASV Primary Screen - GLuc reporter signal (AID 1347082); also: % is scaled to controls: 0 for no effect and ±100 for the full control effect; nearly all actives have a fitted effect of over 60% in size
condition.parameters: LASV minigenome vRNP, Gaussia luciferase reporter; series mostly up to 57.5 µM
Inconclusive results are not listed. Active and inactive are the calls of the source. Calls follow the shape of the full dose curve; tested in HEK293 reporter line.
Write down the outcome that applies. Available outcomes: class 1 for active, class 0 for inactive

Field: example entries. Status: answers known.
CN1CCc2cc(Cl)c(O)cc2[C@H]2c3ccccc3CC[C@@H]21
class 0
CCN(CC)CCOC(=O)C(c1ccccc1)C1CCCCC1 (configuration not stated)
class 0
C[C@]12CCC(=O)C=C1CC[C@@H]1[C@@H]2CC[C@@]2(C)[C@H]1CC[C@]2(O)C(=O)CO
class 0
CCCCNc1c(C(=O)OCC)c(C)nc2c1cnn2CC
class 0
CN(C)CCC(c1ccccc1)c1ccccn1 (configuration not stated)
class 0
C1CCN2C[C@@H]3C[C@@H](CN4CCCC[C@@H]34)[C@H]2C1
class 0
CC(C)OC(=O)C(C(=O)OC(C)C)=C1SC=CS1
class 0
CCN(CC)CCOc1ccc2c(c1)C(=O)c1cc(OCCN(CC)CC)ccc1-2
class 0
C[C@H]1NCc2cc(-c3ccc4c(=O)c(C(=O)O)cn(C5CC5)c4c3OC(F)F)ccc21
class 0
FC(F)(F)C(F)(F)C(F)(F)C(F)(F)C(F)(F)C(F)(F)C(F)(F)C(F)(F)Br
class 0

Q: # lookup: test call for COc1cc(CC#N)cc(OC)c1OC
Result: class 0
